Test: Buffer Stability (37° C.)
Conditions: pH 7.4
metric: Buffer Stability (37° C.) % Remaining (at 16-23 hours) pH 7.4 (%)

(P) COc1ccc2c(c1)c(/C=C1\Oc3cc(OC(=O)C(C)(C)C)cc(OC(=O)C(C)(C)C)c3C1=O)cn2CCCN(C)C
(Q) COc1ccc2c(c1)c(/C=C1\Oc3cc(OC(=O)OC(C)C)cc(OC(=O)OC(C)C)c3C1=O)cn2CCCN(C)C
// query Response body: label of entry with the larger Buffer Stability (37° C.) % Remaining (at 16-23 hours) pH 7.4; valid values P , Q . State your choice using its label.
// result P
(P: 20%, Q: 14%)

(I) COc1ccc2[nH]c(-c3ccccc3)c(/C=C3\Oc4cc(O)ccc4C3=O)c2c1
(II) COc1ccc2[nH]c(-c3ccccc3)c(/C=C3\Oc4cc(OC(=O)Oc5ccccc5)cc(OC(=O)Oc5ccccc5)c4C3=O)c2c1
// query Parameter metric = Buffer Stability (37° C.) % Remaining (at 16-23 hours) pH 7.4. Return the lower-valued option from I and II . Reply briefly: the label of your chosen item.
// result II
(II: 0%, I: 98%)

====

Assay: Solubility pH 7.4
Conditions: pH 7.4, aqueous buffer
metric: solubility (µg/mL)

> print(dat)
                                   molecule      metric  observed.value
1  COc1ccc2c(c1)c(/C=C1\Oc3cc(OC(=O)N4CCN(C)CC4)cc(OC(=O)N4CCN(C)CC4)c3C1=O)cn2CCCN(C)C  solubility              36
2  COc1ccc2c(c1)c(/C=C1\Oc3cc(OC(=O)N(C)C)cc(OC(=O)N(C)C)c3C1=O)c(C)n2CCN1CCN(C)CC1  solubility              40

(P) COc1ccc2[nH]c(-c3ccccc3)c(/C=C3\Oc4cc(OC(=O)C(C)(C)C)cc(OC(=O)C(C)(C)C)c4C3=O)c2c1
(Q) COc1ccc2c(c1)c(/C=C1\Oc3cc(OC(=O)CC(C)C)cc(OC(=O)CC(C)C)c3C1=O)cn2CCCN(C)C
// query Choose between P and Q : whose measured solubility value is numerically larger? Use the label to indicate which entry you chose.
// result P

====

Assay: Microsome Stability (15 min), rat
Type: in vitro ADME
Details: microsomes, Phase I (NADPH), read-out: Microsome Stability (15 min) T ½ Phase I rat
metric: half-life (min)

Look over these answered cases.
> print(dat)
                                   molecule  observed.value
1  COc1ccc2c(c1)c(/C=C1\Oc3cc(OC(=O)C(C)(C)C)cc(OC(=O)C(C)(C)C)c3C1=O)cn2CCCN(C)C [Example 14]               3
2  COc1ccc2c(c1)c(/C=C1\Oc3cc(O)cc(OC(=O)N(C)C)c3C1=O)c(C)n2CCN1CCN(C)CC1 [Example 39]              27
3  COc1ccc2c(c1)c(/C=C1\Oc3cc(OC(=O)N(C)c4ccccc4)ccc3C1=O)c(C)n2CCN1CCN(C)CC1 [Example 46]              10

(I) Cn1cc(/C=C2\Oc3cc(O)cc(O)c3C2=O)c2c(-c3ccccc3)cccc21
(II) Cn1cc(/C=C2\Oc3cccc(O)c3C2=O)c2c(N3CC4CCC(C3)O4)ccnc21
// query Of I and II , whose reported half-life is numerically smaller? Please identify the chosen entry by its label.
// result II
(II: 2 min, I: 21 min)

====

Test: Microsome Stability (15 min), human
Format: in vitro ADME
Details: microsomes, Phase I (NADPH), read-out: Microsome Stability (15 min) T ½ Phase I human
metric: half-life (min)

The examples below pair each entry with its known result.
> print(dat)
                                   molecule     metric  observed.value
1  CCOP(=O)(OCC)Oc1cc2c(c(OP(=O)(OCC)OCC)c1)C(=O)/C(=C/c1cn(CCCN(C)C)c3ccc(OC)cc13)O2  half-life               4
2  COc1ccc2c(c1)c(/C=C1\Oc3cc(OC(=O)N(C)C)cc(OC(=O)N(C)C)c3C1=O)cn2CCCN(C)C  half-life              15
3  COc1ccc2c(c1)c(/C=C1\Oc3cc(OC(=O)N(C)C)cc(OC(=O)N(C)C)c3C1=O)c(C)n2CCN1CCN(C)CC1  half-life               9

(a) COc1ccc2c(c1)c(/C=C1\Oc3cc(OC(=O)CC(C)C)cc(OC(=O)CC(C)C)c3C1=O)cn2CCCN(C)C
(b) COc1ccc2[nH]c(-c3ccccc3)c(/C=C3\Oc4cc(O)ccc4C3=O)c2c1
// query // pick min by half-life: a , b Your answer should be the label attached to the chosen record.
// result a

====

Assay: Plasma Stability (37° C.), rat
metric: Plasma Stability (37° C.) % Remaining (3-3.5 hours) rat (%)

> print(dat)
                                   molecule  observed.value
1  COc1ccc2c(c1)c(/C=C1\Oc3cc(OC(=O)c4ccccc4)cc(OC(=O)c4ccccc4)c3C1=O)cn2CCCN(C)C               6
2  COc1ccc2c(c1)c(/C=C1\Oc3cc(OC(=O)N(C)c4ccccc4)cc(OC(=O)N(C)c4ccccc4)c3C1=O)cn2CCCN(C)C              22
3  COc1ccc2[nH]c(-c3ccccc3)c(/C=C3\Oc4cc(OC(=O)OC(C)C)cc(OC(=O)OC(C)C)c4C3=O)c2c1               0
4  CN(C)C(=O)Oc1cc(OC(=O)N(C)C)c2c(c1)O/C(=C\c1cn(C)c3nccc(-c4ccccc4)c13)C2=O              54

(I) COc1ccc2[nH]c(-c3ccccc3)c(/C=C3\Oc4cc(OC(=O)C(C)(C)C)cc(OC(=O)C(C)(C)C)c4C3=O)c2c1
(II) COc1ccc2c(c1)c(/C=C1\Oc3cc(OC(=O)CC(C)C)cc(OC(=O)CC(C)C)c3C1=O)cn2CCCN(C)C
// query Which of the two items, I and II , has the greater recorded Plasma Stability (37° C.) % Remaining (3-3.5 hours) rat? Lab note: record the label of whichever item you select.
// result I
(I: 6%, II: 0%)

====

Experiment: PAMPA permeability pH 7.4
metric: PAMPA Pe

Examples with their reported PAMPA Pe follow.
compound	observed_value
COc1ccc2[nH]c(-c3ccccc3)c(/C=C3\Oc4cc(OC(=O)N(c5ccccc5)c5ccccc5)cc(OC(=O)N(c5ccccc5)c5ccccc5)c4C3=O)c2c1 [Example 11]	1.14 10e−6 cm/s
CN(C)C(=O)Oc1cccc2c1C(=O)/C(=C/c1cn(C)c3nccc(N4CC5CCC(C4)O5)c13)O2 [Example 44]	Undetected
COc1ccc2c(c1)c(/C=C1\Oc3cc(OC(=O)N4CCN(C)CC4)cc(OC(=O)N4CCN(C)CC4)c3C1=O)cn2CCCN(C)C [Example 36]	0.23 10e−6 cm/s
COc1ccc2c(c1)c(/C=C1\Oc3cc(OC(=O)c4ccccc4)cc(OC(=O)c4ccccc4)c3C1=O)c(C)n2CCN1CCN(C)CC1 [Example 16]	0 10e−6 cm/s
COc1ccc2[nH]c(-c3ccccc3)c(/C=C3\Oc4cc(OP(=O)(O)O)ccc4C3=O)c2c1 [Example 27]	0 10e−6 cm/s
COc1ccc2c(c1)c(/C=C1\Oc3cc(OC(=O)C(C)(C)C)cc(OC(=O)C(C)(C)C)c3C1=O)cn2CCCN(C)C [Example 14]	0 10e−6 cm/s

// query Can you look up the measured PAMPA Pe of COc1ccc2[nH]c(-c3ccccc3)c(/C=C3\Oc4cc(OC(=O)N(C(C)C)C(C)C)cc(OC(=O)N(C(C)C)C(C)C)c4C3=O)c2c1 [Example 31] for me?
// result 0 10e−6 cm/s

// query What value of measured PAMPA Pe is listed for COc1ccc2[nH]c(-c3ccccc3)c(/C=C3\Oc4cc(OC(=O)N(C)C)ccc4C3=O)c2c1 [Example 18] ?
// result Undetected

// query Need PAMPA Pe, item COc1ccc2c(c1)c(/C=C1\Oc3cc(OC(=O)N(C(C)C)C(C)C)cc(OC(=O)N(C(C)C)C(C)C)c3C1=O)cn2CCCN(C)C [Example 4]
// result 0 10e−6 cm/s

// query // returns reported PAMPA Pe for input COc1ccc2c(c1)c(/C=C1\Oc3cc(O)ccc3C1=O)cn2CCCN(C)C
// result 0 10e−6 cm/s

// query # lookup: PAMPA Pe of COc1ccc2[nH]c(-c3ccccc3)c(/C=C3\Oc4cc(OC(C)=O)cc(OC(C)=O)c4C3=O)c2c1 [Example 3]
// result 0 10e−6 cm/s

====

List of plasma prodrug concentration values.
Assay: In vivo blood/plasma and tumor levels of prodrug and metabolites after 50 mg, kg po
Conditions: 50 mg, 0.5 h

> print(dat)
                                   molecule                        metric  observed.value
1  COc1ccc2c(c1)c(/C=C1\Oc3cc(OC(=O)N(C)C)cc(OC(=O)N(C)C)c3C1=O)cn2CCCN(C)C  plasma prodrug concentration    3122, ng, ml

// query GET /values?readout=plasma prodrug concentration&item= COc1ccc2c(c1)c(/C=C1\Oc3cc(OC(=O)N(C(C)C)C(C)C)cc(OC(=O)N(C(C)C)C(C)C)c3C1=O)cn2CCCN(C)C
// result 411 ng, ml

// query I have this compound here, COc1ccc2c(c1)c(/C=C1\Oc3cc(OC(=O)N(C)C)cc(OC(=O)N(C)C)c3C1=O)c(C)n2CCN1CCN(C)CC1 , and I need its recorded plasma prodrug concentration.
// result 2444, ng, ml
